# TESTED TARGET: Cathepsin G (Homo sapiens, UniProt P08311)
# Sequence (P08311 whole entry): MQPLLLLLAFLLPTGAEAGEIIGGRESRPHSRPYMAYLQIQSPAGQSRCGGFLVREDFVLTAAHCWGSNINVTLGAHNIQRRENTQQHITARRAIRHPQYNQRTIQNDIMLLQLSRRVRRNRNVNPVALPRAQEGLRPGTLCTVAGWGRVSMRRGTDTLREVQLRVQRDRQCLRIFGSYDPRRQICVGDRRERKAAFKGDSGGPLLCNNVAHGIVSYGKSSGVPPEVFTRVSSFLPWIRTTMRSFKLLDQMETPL
# PROTOCOL SUMMARY: Inhibition of cathepsin G in human neutrophil using Suc-Ala-Ala-Pro-Phe-p-nitroanilide as chromogenic substrate incubated for 30 mins prior to substrate addition measured for 30 mins by progress curve method
pIC50: −log10 of the molar value.
Measured pIC50, listed per entry for reference.
MEASUREMENT NAME: pIC50

{"MOLECULE": "O=C(Oc1coc(CSc2nnc(NC(=O)C3CC3)s2)cc1=O)c1cccc(F)c1", "OBSERVED VALUE": "< 3.87"}
{"MOLECULE": "Nc1nnc(SC(C(=O)Nc2cc(Cl)cc(Cl)c2)c2ccccc2)[nH]1 (configuration not stated)", "OBSERVED VALUE": "< 3.86"}

* * *

# PROTOCOL SUMMARY: Metabolic stability in Sprague-Dawley rat pooled liver microsomes assessed as compound remaining after 2 days by HPLC analysis in presence of NADPH generating system
# Type: ADME
# TEST SETTINGS: read-out: Stability

{"COMPOUND": "Nc1nnc(SC(C(=O)Nc2cc(Cl)cc(Cl)c2)c2ccccc2)[nH]1 (stereo unspecified)", "remaining at 48 h": "> 80%"}

* * *

# PROTOCOL SUMMARY: Chemical stability of the compound in phosphate buffer at pH 7.4 assessed as compound remaining at 50 uM after 2 days by HPLC analysis
# Type: physicochemical
# TEST SETTINGS: read-out: Stability

{"STRUCTURE SMILES STRING": "O=C(Oc1coc(CSc2nnc(NC(=O)C3CC3)s2)cc1=O)c1cccc(F)c1", "remaining at 48 h, 50 µM": "> 80%"}

* * *

# TESTED TARGET: Neutrophil elastase (Homo sapiens, UniProt P08246)
# Sequence (P08246 whole entry): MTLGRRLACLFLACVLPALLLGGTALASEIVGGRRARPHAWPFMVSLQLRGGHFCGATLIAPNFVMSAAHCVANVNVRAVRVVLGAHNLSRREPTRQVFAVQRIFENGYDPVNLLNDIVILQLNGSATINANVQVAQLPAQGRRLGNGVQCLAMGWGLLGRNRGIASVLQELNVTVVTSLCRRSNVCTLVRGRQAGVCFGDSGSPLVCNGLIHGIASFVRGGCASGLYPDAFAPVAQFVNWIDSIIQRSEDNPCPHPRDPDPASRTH
# PROTOCOL SUMMARY: Inhibition of human neutrophil elastase using N-MeOSuc-Ala-Ala-Pro-Val-p-nitroanilide as substrate incubated for 30 mins prior to substrate addition measured for 60 mins by chromogenic 96 well microplate assay
# TEST SETTINGS: read-out: IC50
pIC50: −log10 of the molar value. Residues, ends and D or L forms follow the SMILES beside them. *: point of attachment. MeOSuc = COC(=O)CCC(=O)*; CH2Cl = ClC*

{"COMPOUND": "CCC(N)c1nc(C(=O)NC(Cc2ccccc2)C(=O)OCc2ccccc2)co1 (centres undefined)", "pIC50": "< 4.00"}
{"COMPOUND": "Cc1occc1-c1nnc(SCC(=O)NCCc2ccccc2)n1C(C)c1ccccc1 (centres undefined)", "pIC50": "< 4.00"}
{"COMPOUND": "COC(=O)CCC(=O)N[C@@H](C)C(=O)N[C@@H](C)C(=O)N1CCC[C@H]1C(=O)N[C@@H](C)C(=O)CCl (MeOSuc-AAPA-CH2Cl)", "pIC50": 4.69}
{"COMPOUND": "Nc1c(C(=O)NCc2cccs2)c2nc3ccccc3nc2n1/N=C/c1ccccn1", "pIC50": 4.75}
{"COMPOUND": "O=C(CSc1nnc(C2CC2)n1Cc1ccccc1)NCc1ccccc1", "pIC50": "< 4.00"}
{"COMPOUND": "CCOC(=O)C(CSCc1ccccc1)NC(=O)c1coc(-c2ccc(N)cc2)n1 (centres undefined)", "pIC50": 4.49}
{"COMPOUND": "COc1ccc(CCNC(=O)C(Sc2ccccn2)c2ccccc2)cc1OC (centres undefined)", "pIC50": "< 4.00"}
{"COMPOUND": "O=C(NCc1ccccc1)c1ccc2nc(-c3ccccn3)c(-c3ccccn3)nc2c1", "pIC50": "< 4.00"}
{"COMPOUND": "O=C(O)CSc1nnc(CSc2nc3ccccc3s2)n1-c1ccccc1", "pIC50": "< 4.00"}
